- SUBJECT_OF_TEST: OsSMF1 (Oryza sativa, UniProt Q6ZLB0 1-436)
- Sequence: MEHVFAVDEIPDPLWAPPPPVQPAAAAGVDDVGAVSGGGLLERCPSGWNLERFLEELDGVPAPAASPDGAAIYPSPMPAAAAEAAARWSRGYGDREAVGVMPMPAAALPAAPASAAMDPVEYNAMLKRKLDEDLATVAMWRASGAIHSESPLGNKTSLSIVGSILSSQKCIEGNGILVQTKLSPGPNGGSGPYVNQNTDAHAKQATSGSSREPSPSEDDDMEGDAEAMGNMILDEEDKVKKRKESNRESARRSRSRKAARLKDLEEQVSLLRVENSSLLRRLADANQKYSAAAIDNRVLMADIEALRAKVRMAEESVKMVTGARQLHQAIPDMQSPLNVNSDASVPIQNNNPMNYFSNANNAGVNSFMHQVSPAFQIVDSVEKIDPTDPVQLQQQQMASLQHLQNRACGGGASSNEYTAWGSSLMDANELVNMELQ
- ASSAY_DETAILS: protein-binding microarray (RPBM); PBS, 2% BSA, 51.3 ng/ul salmon testes DNA, 50 uM zinc acetate, 200 nM TF, 25 C, 1 h; high values mean tight binding
- CONDITION_PARAMETERS: protein: recombinant; tags: N-terminal polyhistidine and DsRed monomer fusion (pET32a); chain copies: 2; label: CyDye5-dUTP incorporated in the synthesized complementary strand; 3' TTTTT single-stranded linker to array surface; dsDNA, one strand shown
The full ranking holds about 39,000 sequences; the median of “fluorescence intensity (a.u.)” is about 4,300, and the highest 2% start at about 39,000. The full list was thinned out, with the highest values kept by preference.
MEASUREMENT_NAME: binding signal

GCACATCTTCCTTAATTGCCAAAAGAGTAAATTTCACGAACGGAGTCACCTAGTGCAG; 43300 fluorescence intensity (a.u.)
CGAACGAGAATTCATGGAATCCAAGAAAAGAGACACGTGTCGGAGTCACCTAGTGCAG; 5610 fluorescence intensity (a.u.)
TTTCGCAATTATATTGATGCAGAAATCAGCAGCTCACAATCGGAGTCACCTAGTGCAG; 20700 fluorescence intensity (a.u.)
AAGAGAAAATTCAAGAAATATCATTACCAAAGTCCAAGAACGGAGTCACCTAGTGCAG; 52800 fluorescence intensity (a.u.)
TTTCAAAATATTCAGTTTGAGAATATGTAAATCTTATGGGCGGAGTCACCTAGTGCAG; 20100 fluorescence intensity (a.u.)

State its binding signal for this sequence: CAATATGACATTGTATATGTGAATTGAGTGTAACTTGGTTCGGAGTCACCTAGTGCAG
3290 fluorescence intensity (a.u.)

Write down binding signal measured for item GGCGGCGCCGACGACTCCGCGCCGCTCGGCCTCATCGTCGCGGAGTCACCTAGTGCAG
3190 fluorescence intensity (a.u.)

Using the record for AAGCACTCCAAACTGCAACGATTATATCAATAAAATAAAACGGAGTCACCTAGTGCAG , state its measured binding signal.
39000 fluorescence intensity (a.u.)

---

- SUBJECT_OF_TEST: OsSMF1 (Oryza sativa, UniProt Q6ZLB0 1-436)
- Sequence: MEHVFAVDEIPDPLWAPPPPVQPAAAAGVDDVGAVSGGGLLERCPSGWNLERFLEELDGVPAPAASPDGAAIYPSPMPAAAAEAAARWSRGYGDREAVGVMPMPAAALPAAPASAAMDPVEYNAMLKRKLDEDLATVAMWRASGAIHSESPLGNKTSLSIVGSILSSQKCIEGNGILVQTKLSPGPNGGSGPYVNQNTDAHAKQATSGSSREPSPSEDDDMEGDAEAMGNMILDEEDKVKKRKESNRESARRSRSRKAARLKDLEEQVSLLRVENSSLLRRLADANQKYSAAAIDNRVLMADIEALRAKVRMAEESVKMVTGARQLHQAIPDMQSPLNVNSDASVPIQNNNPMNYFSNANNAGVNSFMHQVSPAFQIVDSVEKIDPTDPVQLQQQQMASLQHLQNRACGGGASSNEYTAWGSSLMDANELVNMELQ
- ASSAY_DETAILS: protein-binding microarray (RPBM); PBS, 2% BSA, 51.3 ng/ul salmon testes DNA, 50 uM zinc acetate, 200 nM TF, 25 C, 1 h; high values mean tight binding
- CONDITION_PARAMETERS: protein: recombinant; tags: N-terminal polyhistidine and DsRed monomer fusion (pET32a); chain copies: 2; label: CyDye5-dUTP incorporated in the synthesized complementary strand; 3' TTTTT single-stranded linker to array surface; dsDNA, one strand shown
Whole data set: some 39,000 sequences, median “fluorescence intensity (a.u.)” near 4,300, cut for the highest 2% near 39,000. Shown is part of a subset that was picked to be rich in the highest values.
MEASUREMENT_NAME: binding signal

TAAAGTAGTTTTACACGTAAATCAGATGCTGACGTCAGCGCGGAGTCACCTAGTGCAG; 48600 fluorescence intensity (a.u.)
GGGGACATTACTCCGTGGTTTACATGTCATCCAAATAGTTCGGAGTCACCTAGTGCAG; 5320 fluorescence intensity (a.u.)
CATCGGACGGCCCATGTAGCCCAACTCCTCCGCTGCCACGCGGAGTCACCTAGTGCAG; 3410 fluorescence intensity (a.u.)
ATGAAGGATGCTTAAAAGTCTATTTTGCCTCGGCAAAATACGGAGTCACCTAGTGCAG; 28700 fluorescence intensity (a.u.)

Note binding signal for the sequence shown: CAACCTTTATCTGAAGTGGCAGGCACGTGGATTAGCAATACGGAGTCACCTAGTGCAG
5790 fluorescence intensity (a.u.)

Annotate the sequence ATGAAAGGGAATGTGTGGTGGAGGAGGTGGCTGAGAGATTCGGAGTCACCTAGTGCAG with its measured binding signal.
3340 fluorescence intensity (a.u.)

For the sequence TTAAATTTGAAACAGTTTGACTTTGACCAGTCAAAGTCTTCGGAGTCACCTAGTGCAG , report binding signal.
8060 fluorescence intensity (a.u.)

Please supply the value of reported binding signal for the item GATGGGCTTGTGCTGACATCATCTATACGTGCTTTGCTCCCGGAGTCACCTAGTGCAG
14500 fluorescence intensity (a.u.)

Input GTGATATTCTGTCTTCCTGTGATATCAGCACTGTTTTATGCGGAGTCACCTAGTGCAG , output reported binding signal.
3450 fluorescence intensity (a.u.)

---

- SUBJECT_OF_TEST: OsSMF1 (Oryza sativa, UniProt Q6ZLB0 1-436)
- Sequence: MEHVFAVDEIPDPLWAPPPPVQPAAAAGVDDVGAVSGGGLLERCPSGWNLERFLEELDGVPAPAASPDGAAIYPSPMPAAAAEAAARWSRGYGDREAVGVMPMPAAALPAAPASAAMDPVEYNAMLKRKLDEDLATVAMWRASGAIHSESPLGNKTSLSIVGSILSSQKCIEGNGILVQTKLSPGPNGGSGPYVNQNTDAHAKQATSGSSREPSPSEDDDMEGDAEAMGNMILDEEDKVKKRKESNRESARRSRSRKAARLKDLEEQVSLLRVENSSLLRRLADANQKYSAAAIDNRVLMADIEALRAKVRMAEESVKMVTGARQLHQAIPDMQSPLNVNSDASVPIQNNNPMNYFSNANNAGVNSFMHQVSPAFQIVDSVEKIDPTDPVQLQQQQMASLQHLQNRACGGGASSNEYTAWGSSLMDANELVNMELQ
- ASSAY_DETAILS: protein-binding microarray (RPBM); PBS, 2% BSA, 51.3 ng/ul salmon testes DNA, 50 uM zinc acetate, 200 nM TF, 25 C, 1 h; high values mean tight binding
- CONDITION_PARAMETERS: protein: recombinant; tags: N-terminal polyhistidine and DsRed monomer fusion (pET32a); chain copies: 2; label: CyDye5-dUTP incorporated in the synthesized complementary strand; 3' TTTTT single-stranded linker to array surface; dsDNA, one strand shown
The full ranking holds about 39,000 sequences; the median of “fluorescence intensity (a.u.)” is about 4,300, and the highest 2% start at about 39,000. This is one part of a sample in which the highest values are shown more often than they occur.
Listed sequences paired with reported binding signal

Recorded binding signal, per entry:
GGCAGCTTGGTGCGGGAGAGAGGCGGCGGCGAAGGGGAGACGGAGTCACCTAGTGCAG; 41900 fluorescence intensity (a.u.)
ATCGTCGCGGGGCCGCCGACGGCGCGCGGTGTGGCCGACGCGGAGTCACCTAGTGCAG; 6480 fluorescence intensity (a.u.)
AGAAGAGGGAGACAGAGGATAGAGAGAAGAGGGCACTTCACGGAGTCACCTAGTGCAG; 11900 fluorescence intensity (a.u.)

Note down binding signal recorded for CGGTGGCGGGAACATGTGGGCGGTGGCAGGAGTGCAGGTGCGGAGTCACCTAGTGCAG
3810 fluorescence intensity (a.u.)

Answer with the recorded binding signal of GAACGGAACGCAACGTGCGGAGAGAGAGCGAGAGAGAAGCCGGAGTCACCTAGTGCAG only.
30600 fluorescence intensity (a.u.)

Look up and state reported binding signal for GGAGAAAATTGCGGAGGGGATCCACAGTTCCAGCCGCGTGCGGAGTCACCTAGTGCAG
3190 fluorescence intensity (a.u.)

Return reported binding signal. Input sequence: GGTGGGGACCACCAGGACGGACGTGTAGGGCCTCCTGAAGCGGAGTCACCTAGTGCAG
4270 fluorescence intensity (a.u.)

Kindly indicate its recorded binding signal. Item: CTTTTGGCAAAATCCGTGATGCAGCATCGATCCCTGTCAACGGAGTCACCTAGTGCAG
39800 fluorescence intensity (a.u.)

Determine from records and report binding signal for GAGAGGAGGAAGACAGAGAGGAGAGATGAGATAGGATCAACGGAGTCACCTAGTGCAG
46200 fluorescence intensity (a.u.)
